# pKi against 72 kDa type IV collagenase (Homo sapiens, UniProt P08253), merged from multiple literature sources
# Sequence (P08253 whole entry): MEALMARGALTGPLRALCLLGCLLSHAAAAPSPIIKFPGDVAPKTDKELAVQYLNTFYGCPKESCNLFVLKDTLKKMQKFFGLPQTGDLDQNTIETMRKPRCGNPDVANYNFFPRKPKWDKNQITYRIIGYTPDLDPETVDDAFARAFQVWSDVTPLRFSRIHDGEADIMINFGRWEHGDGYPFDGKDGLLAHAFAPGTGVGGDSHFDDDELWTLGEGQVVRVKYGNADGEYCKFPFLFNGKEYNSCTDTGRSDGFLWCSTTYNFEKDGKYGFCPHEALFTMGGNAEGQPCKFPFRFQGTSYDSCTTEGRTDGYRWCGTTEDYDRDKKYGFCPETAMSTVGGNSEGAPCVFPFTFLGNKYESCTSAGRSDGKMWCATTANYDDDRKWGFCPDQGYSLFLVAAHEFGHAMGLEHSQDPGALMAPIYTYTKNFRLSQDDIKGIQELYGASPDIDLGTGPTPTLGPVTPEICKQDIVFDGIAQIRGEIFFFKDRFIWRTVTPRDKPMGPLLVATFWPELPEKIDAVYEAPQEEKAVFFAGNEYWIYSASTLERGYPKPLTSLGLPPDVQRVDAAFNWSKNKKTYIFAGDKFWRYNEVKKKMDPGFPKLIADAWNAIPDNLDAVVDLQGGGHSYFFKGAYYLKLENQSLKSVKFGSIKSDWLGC
Give only the number. pKi is defined as minus log10 of concentration in molar units.

## Task Under 72 kDa type IV collagenase (Homo sapiens, UniProt P08253): pKi value of Cc1cc(COc2ccc(S(=O)(=O)CC3(CC(=O)NO)CCCCC3)cc2)c2ccccc2n1 ?
## Result 5.85

## Task Under 72 kDa type IV collagenase (Homo sapiens, UniProt P08253): pKi value of Cc1cc(COc2ccc(N3CC[C@H]([C@H](NC(=O)N4CCOCC4)C(=O)NO)C3=O)cc2)c2ccccc2n1 ?
## Result 6.09

## Task Under 72 kDa type IV collagenase (Homo sapiens, UniProt P08253): pKi value of O=S(=O)(N[C@H]1CCC[C@@H]1S)c1ccc(Oc2ccccc2)cc1 ?
## Result 8.34

## Task Under 72 kDa type IV collagenase (Homo sapiens, UniProt P08253): pKi value of COc1ccc(CCC[C@H](CC(=O)NO)C(=O)N[C@@H](CC2CCCCC2)C(=O)NCCc2ccccc2)cc1 ?
## Result 10.22

## Task Under 72 kDa type IV collagenase (Homo sapiens, UniProt P08253): pKi value of O=S(=O)(N[C@H]1CCC[C@@H]1O)c1ccc(Oc2ccccc2)cc1 (racemic) ?
## Result 4.30

## Task Under 72 kDa type IV collagenase (Homo sapiens, UniProt P08253): pKi value of CNC(=O)[C@@H](Cc1ccc2ccccc2c1)NC(=O)[C@@H](CC(=O)NO)CC(C)C ?
## Result 9.15

## Task Under 72 kDa type IV collagenase (Homo sapiens, UniProt P08253): pKi value of CC(C)C[C@H](CC(=O)NO)C(=O)N[C@@H](Cc1c[nH]c2ccccc12)C(=O)NCCc1ccc(O)cc1 ?
## Result 9.28

## Task Under 72 kDa type IV collagenase (Homo sapiens, UniProt P08253): pKi value of C[C@H](C(=O)NO)N1CC[C@@](C)(c2ccc(OCc3ccc([N+](=O)[O-])cc3)cc2)C1=O ?
## Result 7.96

====

pKi: −log10 of the molar value.
# pKi against 72 kDa type IV collagenase (Homo sapiens), merged from multiple literature sources

## Task Look up pKi: NC(=O)[C@H](Cc1ccccc1)NC(=O)Nc1nnc(S)s1
## Result < 3.70

## Task Look up pKi: CNC(=O)[C@H](Cc1c[nH]c2ccccc12)N(C)C(=O)[C@@H](CC(=O)NO)CC(C)C
## Result 7.77

## Task Look up pKi: CC(C)c1nc2ccccc2n1Cc1ccc(C(=O)N[C@@H]2C[C@@]3(CCCO3)C[C@@H]2C(=O)NO)cc1
## Result < 5.48

## Task Look up pKi: C#CCN1CC[C@H](c2n[nH]c(=S)[nH]2)[C@H](NC(=O)c2ccc(OCc3cc(C)nc4ccccc34)cc2)C1 (relative stereo)
## Result < 5.48

====

# Ki against 72 kDa type IV collagenase (Homo sapiens, UniProt P08253), merged from multiple literature sources
Express it in µM; write the number only.

## Task Under 72 kDa type IV collagenase (Homo sapiens, UniProt P08253): Ki value of COc1ccc(S(=O)(=O)C(CC(=O)NO)CC(C)CC(C)(C)C)cc1 (configuration not stated) ?
## Result 0.027

## Task Under 72 kDa type IV collagenase (Homo sapiens, UniProt P08253): Ki value of COc1cccc(C[C@H](CC(=O)NO)C(=O)N[C@H]2c3ccccc3C[C@H]2O)c1 ?
## Result 6.6

## Task Under 72 kDa type IV collagenase (Homo sapiens, UniProt P08253): Ki value of COC(=O)N1CC[C@H](C(=O)Nc2ccc(OCc3cc(C)nc4ccccc34)cc2)[C@@H](C(=O)NO)C1 ?
## Result 1.11

## Task Under 72 kDa type IV collagenase (Homo sapiens, UniProt P08253): Ki value of C[C@H](C(=O)NO)N1CC[C@@](C)(c2ccc(-c3ccccc3)cc2)C1=O ?
## Result 0.082

## Task Under 72 kDa type IV collagenase (Homo sapiens, UniProt P08253): Ki value of Cc1ccc(CCC[C@H](CC(=O)NO)C(=O)N[C@@H](CC2CCCCC2)C(=O)NCCC(=O)NCCCCN2CCOCC2)cc1 ?
## Result 2e-05

## Task Under 72 kDa type IV collagenase (Homo sapiens, UniProt P08253): Ki value of CCCC[C@@H](C[C@@H](CCc1cccc(-c2ccccc2)c1)C(=O)N[C@H](C(=O)NC)C(C)(C)C)C(=O)O ?
## Result 2.4

## Task Under 72 kDa type IV collagenase (Homo sapiens, UniProt P08253): Ki value of CCCC[C@@H](C[C@@H](CCc1ccc(-c2cccc3ccccc23)cc1)C(=O)N[C@H](C(=O)NC)C(C)(C)C)C(=O)O ?
## Result 6.9

## Task Under 72 kDa type IV collagenase (Homo sapiens, UniProt P08253): Ki value of Cc1cc(COc2ccc(C[C@]3(C(N)=O)C[C@@H]3C(=O)NO)cc2)c2ccccc2n1 ?
## Result 1000

## Task Under 72 kDa type IV collagenase (Homo sapiens, UniProt P08253): Ki value of Cc1cc(COc2ccc(NC(=O)[C@H]3CCN(C(=O)OC(C)C)C[C@@H]3C(=O)NO)cc2)c2ccccc2n1 ?
## Result 0.771

## Task Under 72 kDa type IV collagenase (Homo sapiens, UniProt P08253): Ki value of O=C(C[C@@H](Cc1ccc(-c2ccccc2-c2nn[nH]n2)cc1)C(=O)N[C@H]1c2ccccc2C[C@H]1O)NO ?
## Result 1.13

## Task Under 72 kDa type IV collagenase (Homo sapiens, UniProt P08253): Ki value of CC(C)Cc1ccc(CC[C@H](N[C@H](C)C(=O)O)C(=O)N[C@@H](CC(C)C)C(=O)Nc2ccccc2)cc1 ?
## Result 0.011

## Task Under 72 kDa type IV collagenase (Homo sapiens, UniProt P08253): Ki value of CC(C)C[C@H](CC(=O)NO)C(=O)N[C@@H](Cc1c[nH]c2ccccc12)C(=O)NCc1cccnc1 ?
## Result 0.00052

## Task Under 72 kDa type IV collagenase (Homo sapiens, UniProt P08253): Ki value of Cc1cc(C)cc(C(=O)Nc2ccc3c(c2)NCCN([C@H](C)C(=O)NO)S3(=O)=O)c1 ?
## Result 0.094

## Task Under 72 kDa type IV collagenase (Homo sapiens, UniProt P08253): Ki value of CCCC[C@H](CC(=O)NO)C(=O)N[C@@H](Cc1c[nH]c2ccccc12)C(=O)NC ?
## Result 0.00057

## Task Under 72 kDa type IV collagenase (Homo sapiens, UniProt P08253): Ki value of CCCC[C@@H](C[C@@H](CCc1ccccc1)C(=O)N[C@H](C(=O)NC)C(C)(C)C)C(=O)O ?
## Result 1.5
